- System: Rattus norvegicus
- assayMethodText: Area under curve was evaluated in rat plasma when administered intravenously at a dose of 10 mg/kg for 4 or 6 hours
- Assay type: ADME, organism-based
- Parameters: dose 10 mg/kg, route intravenous
- experimentalContext: in vivo, iv
parameter: AUC

N[C@](CC1c2ccccc2Oc2ccccc21)(C(=O)O)[C@H]1C[C@@H]1C(=O)O :: 8370 ng·h/mL

---

- testSystem: Metabotropic glutamate receptor 2 (Homo sapiens, UniProt Q14416)
- Sequence (Q14416 whole entry): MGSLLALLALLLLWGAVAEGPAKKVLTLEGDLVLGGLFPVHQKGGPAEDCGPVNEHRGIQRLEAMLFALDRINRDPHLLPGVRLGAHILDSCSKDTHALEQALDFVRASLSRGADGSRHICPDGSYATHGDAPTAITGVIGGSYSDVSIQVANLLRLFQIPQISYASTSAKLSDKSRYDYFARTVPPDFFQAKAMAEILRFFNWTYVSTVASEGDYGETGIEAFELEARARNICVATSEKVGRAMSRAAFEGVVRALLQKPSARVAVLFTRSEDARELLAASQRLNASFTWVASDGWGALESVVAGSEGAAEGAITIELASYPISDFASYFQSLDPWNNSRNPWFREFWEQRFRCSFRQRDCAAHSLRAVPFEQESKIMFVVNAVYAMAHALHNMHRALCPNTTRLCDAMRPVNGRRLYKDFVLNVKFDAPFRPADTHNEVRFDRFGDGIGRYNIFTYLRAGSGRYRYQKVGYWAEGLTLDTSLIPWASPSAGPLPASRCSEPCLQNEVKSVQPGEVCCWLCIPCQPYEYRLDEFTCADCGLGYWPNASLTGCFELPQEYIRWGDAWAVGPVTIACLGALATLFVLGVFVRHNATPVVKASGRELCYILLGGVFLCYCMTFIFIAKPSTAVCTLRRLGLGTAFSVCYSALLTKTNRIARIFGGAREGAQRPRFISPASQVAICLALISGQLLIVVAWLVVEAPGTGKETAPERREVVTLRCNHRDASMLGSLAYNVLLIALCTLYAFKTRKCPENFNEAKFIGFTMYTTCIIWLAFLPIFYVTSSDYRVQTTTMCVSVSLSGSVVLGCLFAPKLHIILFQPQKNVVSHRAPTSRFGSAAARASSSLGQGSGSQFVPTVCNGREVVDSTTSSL
- assayMethodText: Effect on 1S,3R-ACPD-induced inhibition of forskolin stimulated cyclic-AMP in RGT cells expressing human Metabotropic glutamate receptor 2
- Format: functional, cell-based
pIC50: −log10 of the molar value.
parameter: pIC50

N[C@@](CCc1cccc(O)c1)(C(=O)O)C1C[C@@H]1C(=O)O (some centres undefined) :: 6.00
N[C@](CC(c1ccccc1)c1ccccc1)(C(=O)O)[C@H]1C[C@@H]1C(=O)O :: 6.66
N[C@@](CCc1cccc(Cl)c1)(C(=O)O)C1C[C@@H]1C(=O)O (some centres undefined) :: 6.74
N[C@@](CCc1cccc(C(F)(F)F)c1)(C(=O)O)C1C[C@@H]1C(=O)O (some centres undefined) :: 6.66
CS(=O)(=O)c1cccc(CC[C@](N)(C(=O)O)C2C[C@@H]2C(=O)O)c1 (some centres undefined) :: 6.72
COc1cccc(CC[C@](N)(C(=O)O)C2C[C@@H]2C(=O)O)c1 (some centres undefined) :: 6.37
N[C@@](CCc1ccc(F)cc1)(C(=O)O)C1C[C@@H]1C(=O)O (some centres undefined) :: 6.74
Nc1cccc(CC[C@](N)(C(=O)O)C2C[C@@H]2C(=O)O)c1 (some centres undefined) :: 5.51
NC(CCc1cccc(C(=O)O)c1)(C(=O)O)[C@H]1C[C@@H]1C(=O)O (some centres undefined) :: 5.74
